test: TIM-1 multi-compartmental in vitro model, bioaccessibility; format: in vitro ADME; details: TIM-1 multi-compartmental in vitro gastrointestinal model, 200 mg, pH 2, 200 mg solution, 10 mg/mL, lipid-fasted, starting gastric pH 2, gastric half-time 30 min; read-out: Total recovery
Quantity measured: recovery at 10 mg/mL (%)
A number alone suffices; assume %.

Q: Which recovery at 10 mg/mL value belongs to COc1ccc(-c2ccc3c(N4CCOC[C@@H]4C)nc(N4CCOC[C@@H]4C)nc3n2)cc1CO [Formula 5a free base] ?
A: 96.8

----------
assay: TIM-1 multi-compartmental in vitro model, bioaccessibility; format: in vitro ADME; settings: TIM-1 multi-compartmental in vitro gastrointestinal model, 200 mg (free base equivalent), pH 5, 200 mg (free base equivalent) of 10 mg/mL suspension, initial gastric pH 5, gastric half-time 20 min; read-out: Total recovery
Quantity measured: recovery at 10 mg/mL

Q: Which recovery at 10 mg/mL value belongs to COc1ccc(-c2ccc3c(N4CCOC[C@@H]4C)nc(N4CCOC[C@@H]4C)nc3n2)cc1CO [Formula 5a free base] ?
A: 93%
